From: ChEMBL document CHEMBL1201862

Recorded IC50, one value per entry.
target: Fatty acid synthase (Homo sapiens, UniProt P49327); experiment: inhibition of human FAS-TE enzyme activity – biochemical, kinetic fluorescence intensity, dose response (AID 624326); type: functional;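 note: rate of fluorescence rise from hydrolysis of a fluorogenic O-methyl fluorescein ester substrate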
Calls of active or inactive are those of the source.

Sample answers from the record:
• CCCC(C)C(=O)Nc1cc([N+](=O)[O-])ccc1Cl (centres undefined) = 11.8 µM (active)
• O=C(NCCCCc1ccccc1)c1cc([N+](=O)[O-])cc([N+](=O)[O-])c1 = 8 µM (active)

Query: Note IC50 for the compound shown: Cc1cc(C(C)(C)C)cc(C)c1COC(=O)CN1C(=O)NC2(CCCC2)C1=O
Reply: 13.2 µM (active)

Query: Quick one: give measured IC50 for O=C(COC(=O)c1cc([N+](=O)[O-])ccc1NCCO)Nc1cccc(S(=O)(=O)N2CCCC2)c1
Reply: 4.57 µM (active)

====

target: Alkaline phosphatase, tissue-nonspecific isozyme (Homo sapiens, UniProt P05186); experiment: potency against alkaline phosphatase TNAP – biochemical, luminescent, dose response, SAR follow-up (AID 1056)
Active and inactive are the calls of the source.
Your reply should match one of these outcome classes. active, inactive

Reference set (4 entries):
* NC(=O)c1ccc(-n2nnnc2SCC(=O)c2ccc(O)c(O)c2)cc1 | active
* CCOC(=O)c1nnc(-c2ccccc2)o1 | inactive
* COc1ccc(-c2nc3c4cnn(C)c4ncn3n2)cc1 | inactive
* CN(C(=O)COC(=O)c1cc(-c2ccc(Br)cc2)[nH]n1)C1CCCCC1 | inactive

Okay, now this compound:
Query: Would you mind telling me which call this test gave c1cncc(-n2cnnn2)c1 ?
Reply: inactive

====

experiment: luciferase reporter signal suppression in cells – H4 neuroglioma cells, luminescence, dose response (AID 1990); type: functional, cell-based
Calls of active or inactive are those of the source.
observable: EC50

Query: Supply recorded EC50 for CCOC(=O)N1CCN(C(=O)CN(c2ccc(OC)cc2)S(C)(=O)=O)CC1 here.
Reply: > 120 µM (not active)

Query: Annotate the compound COc1ccc(-n2ncc3c(N4CCCCC4)ncnc32)cc1 with its measured EC50.
Reply: 1.72 µM (inconclusive)

Query: Tell us which EC50 value is on record for CC(C)C[C@H](NC(=O)c1[nH]cnc1C(=O)N[C@@H](CC(C)C)C(=O)OC(C)(C)C)C(=O)OCc1ccccc1
Reply: 21.1 µM (active)

Query: Write down EC50 measured for item c1ccc(Oc2cccc(OCCn3cncn3)c2)cc1
Reply: > 120 µM (not active)

====

AC50 listing for selected compounds.
Target: Histone-lysine N-methyltransferase NSD2 (Homo sapiens)
Sequence (O96028 whole entry): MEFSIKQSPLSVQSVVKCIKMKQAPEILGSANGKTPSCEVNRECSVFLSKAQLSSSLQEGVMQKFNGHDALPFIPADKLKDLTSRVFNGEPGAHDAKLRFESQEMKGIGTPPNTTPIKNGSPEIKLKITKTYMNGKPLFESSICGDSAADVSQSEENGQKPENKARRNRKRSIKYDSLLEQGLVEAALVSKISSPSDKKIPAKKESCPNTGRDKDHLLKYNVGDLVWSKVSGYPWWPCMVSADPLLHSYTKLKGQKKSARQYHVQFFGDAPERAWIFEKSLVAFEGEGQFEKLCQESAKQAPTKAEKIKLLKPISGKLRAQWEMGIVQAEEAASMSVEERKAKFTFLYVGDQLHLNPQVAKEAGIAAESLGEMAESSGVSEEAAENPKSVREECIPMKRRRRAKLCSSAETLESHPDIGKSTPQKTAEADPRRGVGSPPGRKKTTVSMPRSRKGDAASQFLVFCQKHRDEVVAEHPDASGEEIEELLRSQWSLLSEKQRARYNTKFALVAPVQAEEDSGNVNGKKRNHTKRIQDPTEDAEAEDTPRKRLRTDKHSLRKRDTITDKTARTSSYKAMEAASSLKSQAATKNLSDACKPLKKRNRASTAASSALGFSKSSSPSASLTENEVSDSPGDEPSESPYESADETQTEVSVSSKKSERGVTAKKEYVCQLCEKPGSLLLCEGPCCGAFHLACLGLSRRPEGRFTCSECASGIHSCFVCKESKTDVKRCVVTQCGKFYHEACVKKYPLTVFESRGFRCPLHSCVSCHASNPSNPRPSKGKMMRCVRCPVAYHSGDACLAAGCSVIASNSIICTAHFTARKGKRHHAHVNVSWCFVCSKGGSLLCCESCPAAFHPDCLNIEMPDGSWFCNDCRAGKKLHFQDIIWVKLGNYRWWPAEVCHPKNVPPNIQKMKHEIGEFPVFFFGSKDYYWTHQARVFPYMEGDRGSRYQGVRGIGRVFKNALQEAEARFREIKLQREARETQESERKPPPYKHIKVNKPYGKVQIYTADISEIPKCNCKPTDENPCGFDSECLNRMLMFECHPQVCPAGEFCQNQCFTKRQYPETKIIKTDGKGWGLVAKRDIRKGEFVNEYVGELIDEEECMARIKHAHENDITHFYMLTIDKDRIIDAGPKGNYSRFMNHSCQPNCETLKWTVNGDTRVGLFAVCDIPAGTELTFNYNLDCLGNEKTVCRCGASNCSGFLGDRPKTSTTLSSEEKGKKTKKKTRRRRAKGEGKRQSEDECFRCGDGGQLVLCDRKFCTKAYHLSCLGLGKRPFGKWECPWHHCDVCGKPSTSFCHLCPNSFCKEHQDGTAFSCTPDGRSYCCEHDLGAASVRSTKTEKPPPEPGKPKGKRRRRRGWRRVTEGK
Assay type: biochemical
The source made the active and inactive calls.

Would you please look over these solved cases?
- NC(=O)c1ccc(-n2nnnc2SCC(=O)c2ccc(O)c(O)c2)cc1: > 20 µM (inactive)
- C[n+]1ccc(/C=C/c2ccccc2O)c2ccccc21: > 20 µM (inactive)
- O=C(O)c1ccc(NS(=O)(=O)c2ccc3c(c2)C2C=CCC2C(c2ccccc2F)N3)cc1 (stereo not given): 10.2 µM (active)
- CN(C)c1ccc(CNCCC(Cc2ccccc2)c2ccco2)cc1 (stereo not given): > 20 µM (inactive)

Query: Provide AC50, system Histone-lysine N-methyltransferase NSD2 (Homo sapiens), entry COc1ccccc1N=C(S)Nc1cccc2cnccc12
Reply: 10.1 µM (active)

====

target: UniProt:O75030; assay: reducers of TRPM1 reporter luminescence, concentration series – cell-based, SK-MEL-5, cherry-picked, set 3, MITF inhibitor project, dose response (AID 493073); type: functional;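 note: SK-MEL-5 melanoma cells with luciferase driven by the MITF target TRPM1 promoter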
The source made the active and inactive calls.
Entries and their measured AC50 follow.

* COc1ccc(S(=O)(=O)N(C(C)=O)c2ccc(OC(C)=O)c3ccccc23)cc1[N+](=O)[O-] | 11.6 µM (active)
* COc1ccc2cc3cc(C(=O)NCCc4ccc(OC)c(OC)c4)oc3nc2c1 | 16.2 µM (active)
* COc1ccc(-n2ncc3c(N4CCCCC4)ncnc32)cc1 | 1.48 µM (active)
* O=C(O)c1cccc(NC(=O)c2cccc(NC(=O)C3CCCO3)c2)c1 (centres undefined) | 21.2 µM (active)
* COc1ccc(C(=O)/C=C/C(=O)N(CC(=O)NC2CCCCC2)Cc2cccs2)c(O)c1 | 5.53 µM (active)
* Cc1ccc(C(=O)c2no[n+]([O-])c2C(=O)c2ccc(C)cc2)cc1 | 16.7 µM (active)
* O=C(CCl)Nc1ccc(-c2ccccc2)cc1 | 7.3 µM (active)
* O=S(=O)(c1ccc(Cl)cc1)N1CCN(Cc2ccc(O)c3ncccc23)CC1 | 4.37 µM (active)

The record that follows has no AC50 shown yet.
Query: Using the record for CCCN1CCC(NCc2cn(C)nc2-c2ccc(Oc3ccccc3)cc2)CC1 , state its measured AC50.
Reply: 8.35 µM (active)

====

Endpoint: AC50. System: Cytochrome P450 1A2 (Homo sapiens, UniProt P05177). Items follow.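 Note: PubChem cytochrome P450 panel assay, CYP1A2 panel member.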

Sample records with AC50:
* Clc1ccc2c(NCCNc3ccnc4cc(Cl)ccc34)ccnc2c1 | 5.01 µM (inconclusive)
* COc1ccc(C2=NOC(C(=O)NCc3ccco3)C2)cc1OC (stereo unspecified) | 39.8 µM (inconclusive)
* COc1ccc(/C=N/C(CO)C(O)c2ccc([N+](=O)[O-])cc2)cc1 (stereo unspecified) | 20 µM (inconclusive)
* COc1ccc(C(=O)N/N=C2/SCC(=O)N2Cc2ccc3c(c2)OCO3)cc1OC | 25.1 µM (inconclusive)
* COCCn1c(=O)c(-c2cccc(C#N)c2)nc2cnc(Nc3ccccc3)nc21 | 2.51 µM (inconclusive)

Pending molecule:
Query: Given the molecule Cc1cccc(C)c1NC(=O)CN1CCN(CCCC(c2ccc(F)cc2)c2ccc(F)cc2)CC1 [LIDOFLAZINE] , write its reported AC50.
Reply: 15.8 µM (inconclusive)

====

test: viability of uninfected HEp-2 cells – cell-based, HTS, cytotoxicity control for RSV inhibitor project, dose response (AID 2410); format: functional; settings: human respiratory syncytial virus
Calls of active or inactive are those of the source.
Entries annotated with measured CC50

Previously resolved entries follow.
* O=C(COc1ccccc1)Nc1ccc(N2CCN(C(=O)c3ccco3)CC2)cc1 | 23.6 µM (active)
* CCOc1ccccc1/N=N/c1c(C)[nH]n(C(N)=S)c1=O | 33.1 µM (active)
* CCCNC(=O)c1c(N)n(Cc2ccco2)c2nc3ccccc3nc12 | 29.8 µM (active)
* CC(C)(C)c1cc(O)c(C(C)(C)C)cc1O | > 50 µM (active)
* FC(F)(F)c1nnc(-c2ccccc2)nc1Oc1ccc(Cl)cc1Cl | 31.4 µM (active)

Query: Give the value of CC50 reported for the following: Cc1cc(C(=O)CSc2ccc(F)cc2)cc(C)c1O
Reply: 22 µM (active)

Query: Let me know recorded CC50 for C/C(N)=C(/C#N)C(=O)COC(=O)c1cc(C)n(-c2ccc(F)cc2)c1C , thanks.
Reply: 18.8 µM (active)
